// Prompt Rat NHE3 pIC50 lookup, one value per entry
# SYSTEM TESTED: Rat NHE3 (Rattus norvegicus)
# Construct: expressed in transfected cells; host or cells: Opossum kidney (OK) cells (ATCC), electroporation
# ASSAY PROCEDURE: Cell-based NHE3 activity under prompt conditions (OK cells, BCECF pH recovery), rat NHE3
# MEASUREMENT SETUP: prompt conditions
REPORTED METRIC: Prompt Rat NHE3 pIC50

[
  {
    "COMPOUND": "CN1Cc2c(Cl)cc(Cl)cc2[C@H](c2cccc(S(=O)(=O)NCCOCCOCCNC(=O)NCCCC(CCCNC(=O)NCCOCCOCCNS(=O)(=O)c3cccc([C@@H]4CN(C)Cc5c(Cl)cc(Cl)cc54)c3)(CCCNC(=O)NCCOCCOCCNS(=O)(=O)c3cccc([C@@H]4CN(C)Cc5c(Cl)cc(Cl)cc54)c3)NC(=O)COCC(=O)O)c2)C1",
    "SYSTEM TESTED": "Rat NHE3 (Rattus norvegicus)",
    "READOUT RELATION": "=",
    "NUMBER": 9.20
  },
  {
    "COMPOUND": "N=C(N)Nc1nc(-c2cccc(S(=O)(=O)NCCOCCOCCOCCN)c2)c2cc(Cl)ccc2n1",
    "SYSTEM TESTED": "Rat NHE3 (Rattus norvegicus)",
    "READOUT RELATION": "=",
    "NUMBER": 6.10
  },
  {
    "COMPOUND": "CN(C)[C@H]1Cc2ccccc2[C@@H]1Oc1ccc(S(=O)(=O)NCCOCCOCCNC(=O)NCCCCNC(=O)NCCOCCOCCNS(=O)(=O)c2ccc(O[C@H]3c4ccccc4C[C@@H]3N(C)C)cc2)cc1",
    "SYSTEM TESTED": "Rat NHE3 (Rattus norvegicus)",
    "READOUT RELATION": "<",
    "NUMBER": 5.00
  },
  {
    "COMPOUND": "CN1Cc2c(Cl)cc(Cl)cc2[C@H](c2cccc(S(=O)(=O)NCCOCCOCCNC(=O)NCCCC(CCCNC(=O)NCCOCCOCCNS(=O)(=O)c3cccc([C@@H]4CN(C)Cc5c(Cl)cc(Cl)cc54)c3)(CCCNC(=O)NCCOCCOCCNS(=O)(=O)c3cccc([C@@H]4CN(C)Cc5c(Cl)cc(Cl)cc54)c3)NC(=O)NC[C@H](O)[C@@H](O)[C@H](O)[C@H](O)CO)c2)C1",
    "SYSTEM TESTED": "Rat NHE3 (Rattus norvegicus)",
    "READOUT RELATION": "=",
    "NUMBER": 5.80
  },
  {
    "COMPOUND": "N=C(N)Nc1nc(-c2cccc(N3CCN(CCOCCOCCOCCNC(=O)CCOCCOCCOCCOCCOCCOCCOCCC(=O)NCCOCCOCCOCCN4CCN(c5cccc(-c6nc(NC(=N)N)nc7ccc(Cl)cc67)c5)CC4)CC3)c2)c2cc(Cl)ccc2n1",
    "SYSTEM TESTED": "Rat NHE3 (Rattus norvegicus)",
    "READOUT RELATION": "=",
    "NUMBER": 7.30
  },
  {
    "COMPOUND": "CN1Cc2c(Cl)cc(Cl)cc2[C@H](c2cccc(S(=O)(=O)NCCOCCOCCNC(=O)NCCN(CCNC(=O)NCCOCCOCCNS(=O)(=O)c3cccc([C@@H]4CN(C)Cc5c(Cl)cc(Cl)cc54)c3)CCNC(=O)NCCOCCOCCNS(=O)(=O)c3cccc([C@@H]4CN(C)Cc5c(Cl)cc(Cl)cc54)c3)c2)C1",
    "SYSTEM TESTED": "Rat NHE3 (Rattus norvegicus)",
    "READOUT RELATION": "=",
    "NUMBER": 5.60
  },
  {
    "COMPOUND": "C/C(=C\\c1cc(F)c(Oc2ccc(S(=O)(=O)NCCOCCOCCOCCNC(=O)N(C)CCCCN(C)C(=O)NCCOCCOCCOCCNS(=O)(=O)c3ccc(Oc4c(F)cc(/C=C(\\C)C(=O)N=C(N)N)cc4F)cc3)cc2)c(F)c1)C(=O)N=C(N)N",
    "SYSTEM TESTED": "Rat NHE3 (Rattus norvegicus)",
    "READOUT RELATION": "=",
    "NUMBER": 7.80
  },
  {
    "COMPOUND": "NCCOCCOCCN1CCN(c2cccc(-c3nc(N=C(N)N)nc4ccc(Cl)cc34)c2)CC1",
    "SYSTEM TESTED": "Rat NHE3 (Rattus norvegicus)",
    "READOUT RELATION": "=",
    "NUMBER": 6.70
  },
  {
    "COMPOUND": "NCCOCCOCCN1CCN(c2ccc(-c3nc(N=C(N)N)nc4ccc(Cl)cc34)cc2)CC1",
    "SYSTEM TESTED": "Rat NHE3 (Rattus norvegicus)",
    "READOUT RELATION": "=",
    "NUMBER": 7.00
  }
]

---

# SYSTEM TESTED: Rat NHE3 (Rattus norvegicus)
# Construct: expressed in transfected cells; host or cells: Opossum kidney (OK) cells (ATCC), electroporation
# ASSAY PROCEDURE: Cell-based NHE3 activity under prompt conditions (OK cells, BCECF pH recovery), rat NHE3
# MEASUREMENT SETUP: prompt conditions

[
  {
    "COMPOUND": "CN(C)CC(=O)NC(CCC(=O)N(C)CCOCCOCCNS(=O)(=O)c1cccc([C@@H]2CN(C)Cc3c(Cl)cc(Cl)cc32)c1)(CCC(=O)N(C)CCOCCOCCNS(=O)(=O)c1cccc([C@@H]2CN(C)Cc3c(Cl)cc(Cl)cc32)c1)CCC(=O)N(C)CCOCCOCCNS(=O)(=O)c1cccc([C@@H]2CN(C)Cc3c(Cl)cc(Cl)cc32)c1 [compound 176]",
    "SYSTEM TESTED": "Rat NHE3 (Rattus norvegicus)",
    "Prompt Rat NHE3 pIC50": 7.50
  },
  {
    "COMPOUND": "CN1Cc2c(Cl)cc(Cl)cc2[C@H](c2cccc(S(=O)(=O)NCCOCCOCCNC(=O)CCC(CCC(=O)NCCOCCOCCNS(=O)(=O)c3cccc([C@@H]4CN(C)Cc5c(Cl)cc(Cl)cc54)c3)(CCC(=O)NCCOCCOCCNS(=O)(=O)c3cccc([C@@H]4CN(C)Cc5c(Cl)cc(Cl)cc54)c3)NC(=O)NCC(=O)O)c2)C1 [compound 164]",
    "SYSTEM TESTED": "Rat NHE3 (Rattus norvegicus)",
    "Prompt Rat NHE3 pIC50": 7.53
  },
  {
    "COMPOUND": "O=C(O)CN(CCN(CC(=O)O)CC(=O)NCCOCCOCCOCCNS(=O)(=O)c1ccc(OC2c3ccccc3CC2N2CCCCC2)cc1)CC(=O)NCCOCCOCCOCCNS(=O)(=O)c1ccc(OC2c3ccccc3CC2N2CCCCC2)cc1 (stereo not drawn) [compound 49]",
    "SYSTEM TESTED": "Rat NHE3 (Rattus norvegicus)",
    "Prompt Rat NHE3 pIC50": 7.65
  }
]

---

# SYSTEM TESTED: Rat NHE3 (Rattus norvegicus, UniProt P26433)
# Construct: expressed in transfected cells; host or cells: Opossum kidney (OK) cells (ATCC), electroporation
# Sequence (P26433 29-831): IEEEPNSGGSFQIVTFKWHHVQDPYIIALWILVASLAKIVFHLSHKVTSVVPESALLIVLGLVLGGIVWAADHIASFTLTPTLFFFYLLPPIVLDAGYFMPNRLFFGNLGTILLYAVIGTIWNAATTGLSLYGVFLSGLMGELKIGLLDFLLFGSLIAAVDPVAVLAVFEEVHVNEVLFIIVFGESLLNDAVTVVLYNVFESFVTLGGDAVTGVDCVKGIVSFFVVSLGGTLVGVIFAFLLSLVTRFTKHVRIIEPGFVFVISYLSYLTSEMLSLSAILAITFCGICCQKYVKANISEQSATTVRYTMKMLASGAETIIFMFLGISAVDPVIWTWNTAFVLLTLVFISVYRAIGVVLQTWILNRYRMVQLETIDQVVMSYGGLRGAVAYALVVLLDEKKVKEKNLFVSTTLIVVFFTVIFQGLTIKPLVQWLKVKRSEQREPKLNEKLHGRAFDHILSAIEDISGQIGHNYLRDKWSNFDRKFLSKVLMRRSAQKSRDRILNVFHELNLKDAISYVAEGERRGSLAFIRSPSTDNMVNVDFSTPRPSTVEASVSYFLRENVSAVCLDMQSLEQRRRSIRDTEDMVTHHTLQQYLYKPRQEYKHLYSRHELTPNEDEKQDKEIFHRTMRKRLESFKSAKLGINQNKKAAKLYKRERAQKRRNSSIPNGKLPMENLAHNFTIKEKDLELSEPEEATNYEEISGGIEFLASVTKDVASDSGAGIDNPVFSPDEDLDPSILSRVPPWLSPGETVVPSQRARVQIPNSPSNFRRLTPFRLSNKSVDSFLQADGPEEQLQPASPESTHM
# ASSAY PROCEDURE: Cell-based NHE3 activity under prompt conditions (OK cells, BCECF pH recovery), rat NHE3
# MEASUREMENT SETUP: prompt conditions
REPORTED METRIC: Prompt Rat NHE3 pIC50

[
  {
    "COMPOUND": "CN1Cc2c(Cl)cc(Cl)cc2[C@H](c2cccc(S(=O)(=O)NCCOCCOCCOCCNC(=O)CCC(N)(CCC(=O)NCCOCCOCCOCCNS(=O)(=O)c3cccc([C@@H]4CN(C)Cc5c(Cl)cc(Cl)cc54)c3)CCC(=O)NCCOCCOCCOCCNS(=O)(=O)c3cccc([C@@H]4CN(C)Cc5c(Cl)cc(Cl)cc54)c3)c2)C1",
    "NUMBER": 7.20
  },
  {
    "COMPOUND": "N=C(N)Nc1nc(-c2cccc(N3CCN(CCOCCOCCOCCNC(=O)NCCOCCOCCNC(=O)CN(CCN(CC(=O)O)CC(=O)NCCOCCOCCNC(=O)NCCOCCOCCOCCN4CCN(c5cccc(-c6nc(NC(=N)N)nc7ccc(Cl)cc67)c5)CC4)CC(=O)O)CC3)c2)c2cc(Cl)ccc2n1",
    "NUMBER": 7.90
  }
]
